- Test system: MOLT-4 leukemia
- assay remarks: NCI tumour cell line growth inhibition, 48 h; in the data active means GI50 below about 0.43 µM; inactive means the rest
Possible outcomes: active, inactive

- query smiles: "COc1cc(OC)c2cc(C(=O)O)c(=O)oc2c1"
  assigned label: "inactive"
- query smiles: "CCC[CH2][Sn]1([CH2]CCC)[O]C(=O)c2cccc(OC)c2[O]1"
  assigned label: "active"
- query smiles: "Cn1ccnc1C(=O)/C=C/c1ccc(C(=O)Nc2ccccc2O)cc1"
  assigned label: "inactive"
- query smiles: "Cc1cc(NCCCCNc2ccnc3cc(Cl)ccc23)nc(Nc2ccc(C(=O)N3CCCC3)cc2)n1"
  assigned label: "inactive"
- query smiles: "c1ccc2c(-c3nc4ccccc4[nH]3)cccc2c1"
  assigned label: "inactive"
- query smiles: "O=C(Nc1ccc(Cl)cc1)c1ccc([N+](=O)[O-])o1"
  assigned label: "inactive"
- query smiles: "O=C1/C(=C/c2ccc([N+](=O)[O-])o2)Oc2ccccc21"
  assigned label: "inactive"
- query smiles: "O=c1oc2ccc(F)cc2c(=O)n1-c1ccc(Cl)cc1F"
  assigned label: "inactive"
- query smiles: "CO/N=C(\\COc1ccc2c(c1)oc(=O)c1cc(OC)ccc12)c1ccc(F)cc1"
  assigned label: "inactive"

###

- System: RXF 393 renal
- assay remarks: NCI tumour cell line growth inhibition, 48 h; in the data active means GI50 below about 0.43 µM; inactive means the rest
Possible outcomes: active, inactive

- compound: "CC(C)=CCc1ccc(O)c(=O)cc1C(C)C"
  measured target: "RXF 393 renal"
  assigned label: "inactive"
- compound: "COc1cc(Nc2ncc3c(C)nc(-c4cccc(Oc5ccccc5)c4)n3n2)cc(OC)c1OC"
  measured target: "RXF 393 renal"
  assigned label: "inactive"
- compound: "O=C1Nc2ccccc2/C1=C/c1cn(C(=O)c2c(Cl)cccc2Cl)c2ccccc12"
  measured target: "RXF 393 renal"
  assigned label: "inactive"
- compound: "CC1(C)N=C(N)N=C(N)N1c1ccc(OCC(=O)N2CCOCC2)c(Cl)c1"
  measured target: "RXF 393 renal"
  assigned label: "inactive"
- compound: "Cc1ccc(NSc2ccccc2[N+](=O)[O-])cc1"
  measured target: "RXF 393 renal"
  assigned label: "inactive"
- compound: "O=c1[nH]ccc2nc(-c3ccc(CN4CCC(c5nc(-c6ccccn6)n[nH]5)CC4)cc3)c(-c3ccccc3)cc12"
  measured target: "RXF 393 renal"
  assigned label: "active"
- compound: "O=c1oc2ccc(F)cc2c(=O)n1-c1ccc(Cl)cc1F"
  measured target: "RXF 393 renal"
  assigned label: "inactive"
- compound: "C=C(C)[C@@H]1CC[C@]2(C(=O)O)CC[C@]3(C)[C@H](CC[C@@H]4[C@@]5(C)C[C@@H](CC#Cc6ccc(Br)cc6)C(=O)C(C)(C)[C@@H]5CC[C@]43C)[C@@H]12"
  measured target: "RXF 393 renal"
  assigned label: "inactive"
- compound: "CC(C)(C)c1cn2cccc(C(=O)N3CCN(CC(=O)Nc4ccc(Cl)cc4C(=O)c4ccccc4Cl)CC3)c2n1"
  measured target: "RXF 393 renal"
  assigned label: "inactive"
- compound: "COc1cc(C2CC(c3ccc(Nc4ccnc5cc(Cl)ccc45)cc3)=NN2C=O)cc(OC)c1OC (stereo not drawn)"
  measured target: "RXF 393 renal"
  assigned label: "inactive"
- compound: "O[C@@H]1CCCN1Cc1cc2cc3c(cc2c2cc(OCc4ccccc4)ccc12)OCO3"
  measured target: "RXF 393 renal"
  assigned label: "inactive"
- compound: "COc1cc2c3c(n(CCCNC(=O)OCC4c5ccccc5-c5ccccc54)c(=O)c2cc1OC)-c1cc2c(cc1C3=O)OCO2"
  measured target: "RXF 393 renal"
  assigned label: "inactive"
- compound: "COC(=O)c1cc2c3ccccc3n3c(=O)c4cc5cc(OC)c(N(S(=O)(=O)c6ccc(C)cc6)S(=O)(=O)c6ccc(C)cc6)cc5nc4c(n1)c23"
  measured target: "RXF 393 renal"
  assigned label: "inactive"
